# assay method text: Solubility in water (visual, confirmed by HPLC assay of a saturated solution)
# Assay type: physicochemical
# setup conditions: thermodynamic from solid
measured parameter: solubility

> print(dat)
                                   molecule  measured.parameter  recorded.value
1  CN(CCOc1ccc(CC2SC(=O)NC2=O)cc1)c1ccccn1.[K] (stereo not shown) [Potassium Salt]          solubility     > 100 mg/mL
